The origin of these recorded values is the RNAGym collection of RNA variant scans (doi:10.7554/elife.90254).

B1: LINE1-mini (parent)
chain: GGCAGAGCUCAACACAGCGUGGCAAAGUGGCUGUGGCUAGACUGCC

Variants of: B1
assay_remarks: self-cleavage, relative activity (ratio to wild type); higher = more cleavage; in vitro, sequencing; the parent is a self-cleaving ribozyme
Rule: self-cleavage under 0.08 gives Condition not met, otherwise Condition met.

Use the examples below as a reference point.
> print(dat)
   alteration     assigned.class
1    G1U G30A      Condition met
2    U9A G30C      Condition met
3    G5A U32C  Condition not met

Quick check, self-cleavage >= 0.08? A24U C37A Condition not met

Quick check, self-cleavage >= 0.08? A11G C13U Condition not met

Quick check, self-cleavage >= 0.08? C15A C18A Condition not met
